// z-score lookup, one value per entry
Test: RPMI8226 myeloma cell viability, profiling panel, resazurin fluorescence, basal, 24 h, PK04 Diversity Set (AID 1180);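 also: RPMI8826 multiple myeloma cell line at 5000 cells per well; test concentration not given here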
Conditions: higher = more signal
measured_quantity: z-score

- compound: "O=C(CS)NCCCCCCNC(=O)[C@H]1C[C@H]2C(=O)NCC(=O)N2[C@H]1c1ccc(O)cc1"
  value: -0.521
- compound: "C=CCNC(=O)[C@@H]1[C@H]2C(=O)O[C@H](c3ccccc3)[C@H](c3ccccc3)N2[C@H](c2ccccc2OCCO)[C@@]12C(=O)Nc1ccc(C#CC3=CCCCC3)cc12"
  value: -5
- compound: "Cc1ccc(F)cc1S(=O)(=O)N[C@@H]1CCN(Cc2ccc(-c3ccccc3)cc2)C1"
  value: -2.16
- compound: "O=C1C2C=CC(C(O)c3ccc(F)cc3)N(Nc3ccccc3)C2C(=O)N1c1ccccc1 (centres undefined)"
  value: -0.535
